This collection of values is drawn from patent US20240115577A1.

experimental_protocol: IT pharmacokinetics of dutogliptin (1) and dutogliptin boronate (15)
Format: in vivo, mouse
condition_set: mouse, in vivo, 4.4 mg/kg, Bronchoalveolar lavage fluids concentration of dutogliptin, individual animals
measured_endpoint: concentration at 3 h
Could you kindly put the unit after your number?

Input: Can you share its concentration at 3 h? I mean this compound: `O=C(CN[C@@H]1CCNC1)N1CCC[C@H]1B(O)O`
Output: 400 ng/mL

---

Test system: Primary human AEC2s
experimental_protocol: AEC2 proliferation assay (Ki67 high content imaging)
Format: cell-based
measured_endpoint: AEC2 proliferation, result in words

[[record]]
smiles_record = "FC(F)(F)c1cccc(-c2noc(-c3cc(-c4ccccc4)c(C(F)(F)F)s3)n2)c1"
measurement = "active"

[[record]]
smiles_record = "CCCCCCCCc1ccc(CCC(N)(CO)CO)cc1"
measurement = "active"

[[record]]
smiles_record = "CC(C)Oc1ccc(-c2nc(-c3cccc4c3CC[C@@H]4NCCO)no2)cc1C#N"
measurement = "active"

